Data provenance: the supplement of paper PMC10567573

B1: MMP1 (parent)
chain: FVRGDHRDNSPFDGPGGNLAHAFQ

variants of: B1; experiment: protein stability index of a GFP-peptide fusion (GPS, HEK-293T) (PSI 1-6); higher = more stable; conditions: c terminus: a fixed tail appended;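 note: lentivirally expressed fusions sorted by FACS into six bins by GFP to DsRed ratio, PSI derived from sequencing read proportions per bin multiplied by bin number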
Property measured: protein stability index

Variant spec | Reported measurement
A20G | 1.92
S10A | 2.32
D8L | 2.25
P11N | 2.13
A22I | 2.06
V2N | 3.53
F23E | 2.38
R3A | 1.63
F1C | 2.64
R3G | 1.3
F23Q | 2.11
P15I | 1.72
P15T | 1.38
D8I | 1.87
L19Y | 1.64
D13I | 1.63
F12N | 1.83
